Test system: rodent lifetime carcinogenesis bioassay, tumor incidence TD50
Assay: carcinogenic potency in animals, long-term in vivo studies, CPDB compilation (AID 1745844)
Conditions: rat; strain Fischer 344; females; by gavage; site: clitoral gland; lesion: adenoma, NOS; dosed 106 weeks; study length 108 weeks
MEASUREMENT_LABEL: TD50
Respond with the figure and its unit, in that order.

Fill blank: measured TD50 of the molecule `Cc1ccc(N=C=O)cc1N=C=O` is ____.
260 mg/kg/day

---

Tested on: rodent lifetime carcinogenesis bioassay, tumor incidence TD50
Experiment: carcinogenic potency in animals, long-term in vivo studies, CPDB compilation (AID 1745844)
Details: mouse; strain B6C3F1; males; by gavage; site: liver; lesion: hepatocellular carcinoma; dosed 103 weeks; study length 104 weeks
Active and inactive are the calls of the source. The rule behind the calls is not given here.
Returns: one label drawn from active, inactive

Field: outcome | Entry: `O=[N+]([O-])c1ccc(Nc2ccc(Nc3ccccc3)c(S(=O)(=O)O)c2)c([N+](=O)[O-])c1`
inactive

`ClC(Cl)C(Cl)(Cl)Cl` , same question.
active

`O=Cc1ccco1` , same question.
active

---

Tested on: rodent lifetime carcinogenesis bioassay, tumor incidence TD50
Assay: carcinogenic potency in animals, long-term in vivo studies, CPDB compilation (AID 1745844)
Conditions: rat; strain Charles River CD (Sprague-Dawley); females; by gavage; site: stomach; lesion: papilloma; dosed 104 weeks; study length 104 weeks
MEASUREMENT_LABEL: TD50 (mg/kg/day)
// note: answer is a bare numeric in mg/kg/day

Fill blank: measured TD50 of the compound `CC(C)n1c(/C=C/[C@H](O)C[C@H](O)CC(=O)O)c(-c2ccc(F)cc2)c2ccccc21` is ____.
916

---

Test system: rodent lifetime carcinogenesis bioassay, tumor incidence TD50
Assay: carcinogenic potency in animals, long-term in vivo studies, CPDB compilation (AID 1745844)
Conditions: rat; strain Fischer 344; males; in feed; site: liver; lesion: hepatocellular carcinoma; dosed 89 weeks; study length 104 weeks
MEASUREMENT_LABEL: TD50

Fill blank: measured TD50 of the molecule `CCCCCN(CCCCC)N=O` is ____.
2.75 mg/kg/day

---

System: rodent lifetime carcinogenesis bioassay, tumor incidence TD50
Experiment: carcinogenic potency in animals, long-term in vivo studies, CPDB compilation (AID 1745844)
Conditions: mouse; strain C57BL/10J; males; in feed; site: liver; lesion: hepatocellular carcinoma; dosed 78 weeks; study length 78 weeks
MEASUREMENT_LABEL: TD50

Fill blank: measured TD50 of the molecule `CC(C)(OCc1ccc(-c2ccc(Cl)cc2)cc1)C(=O)O` is ____.
214 mg/kg/day

---

System: rodent lifetime carcinogenesis bioassay, tumor incidence TD50
Test: carcinogenic potency in animals, long-term in vivo studies, CPDB compilation (AID 1745844)
Details: mouse; strain B6C3F1; males; in feed; site: liver; lesion: hepatocellular adenoma + hepatoblastoma + hepatocellular carcinoma; dosed 101 weeks; study length 103 weeks
MEASUREMENT_LABEL: TD50 (mg/kg/day)
// note: answer is a bare numeric in mg/kg/day

Fill blank: measured TD50 of the compound `CCC1(c2ccccc2)C(=O)NCNC1=O` is ____.
60.2

---

Tested on: rodent lifetime carcinogenesis bioassay, tumor incidence TD50
Assay: carcinogenic potency in animals, long-term in vivo studies, CPDB compilation (AID 1745844)
Conditions: mouse; strain Charles River CD1; males; inhaled; site: lung; lesion: alveolar/bronchiolar adenocarcinoma; dosed 63 weeks; study length 78 weeks
MEASUREMENT_LABEL: TD50 (mg/kg/day)
// note: answer is a bare numeric in mg/kg/day

Fill blank: measured TD50 of the molecule `C=CF` is ____.
12300

Source: PubChem BioAssay AID1745844
